- experimental_target: PD-L1 (Homo sapiens (Human), UniProt Q9NZQ7)
- Sequence (Q9NZQ7 19-290): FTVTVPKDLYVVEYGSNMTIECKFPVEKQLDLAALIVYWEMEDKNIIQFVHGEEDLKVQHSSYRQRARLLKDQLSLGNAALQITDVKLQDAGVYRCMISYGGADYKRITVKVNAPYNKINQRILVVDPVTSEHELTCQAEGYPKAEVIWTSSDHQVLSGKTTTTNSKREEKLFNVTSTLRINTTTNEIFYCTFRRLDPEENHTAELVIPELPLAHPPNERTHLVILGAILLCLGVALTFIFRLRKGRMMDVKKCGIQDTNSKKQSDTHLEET
- protocol: Indirect PD-L1 internalization assay using MDA-MB231 cells
- Assay type: cell-based
- run_conditions: 16 hrs
Listing of recorded IC50 by entry.

>  <compound>
Cc1c(-c2nc3c(C#N)cc(CN4CC[C@@H](O)C4)cn3n2)cccc1-c1cccc(-c2nc3cc(CN4CC[C@@H](C(=O)O)C4)cc(C#N)c3o2)c1C

>  <IC50>
0.01 to 0.1 µM

$$$$
>  <compound>
Cc1c(Nc2nccc3cc(CN4CC[C@H](C(=O)O)C4)cnc23)cccc1-c1nccc(Nc2nccc3cc(CN4CC[C@@H](O)C4)cnc23)c1C

>  <IC50>
0.01 to 0.1 µM

$$$$

Consider the additional compound presented here.
State its IC50 for this compound: Cc1c(Nc2nccc3cc(CN4CC[C@@H](O)C4)cnc23)cccc1-c1cccc(-c2nc3cc(CC4CC[C@@H](C(=O)O)C4)cc(C#N)c3o2)c1C (stereo partly drawn)
< 0.01 µM

* * *

- experimental_target: PD-L1 (Homo sapiens (Human), UniProt Q9NZQ7)
- protocol: PD-L1 surface levels on HEK293T STING reporter cells, high PD-L1
- Assay type: cell-based
value_kind: IC50

>  <compound>
CCn1nc(C)cc1C(=O)Nc1nc2cc(C(N)=O)cc(OCCCNC(=O)[C@H](CC(=O)O)NC(=O)[C@H](CC(=O)O)NC(=O)[C@H](CCCNC(=N)N)NC(=O)[C@H](CC(=O)O)NC(=O)CCCN3CCc4c(nc(C(=O)Nc5cccc(-c6cccc(NC(=O)c7nc8c(n7C)CCN(CCCC(=O)O)C8)c6Cl)c5Cl)n4C)C3)c2n1C/C=C/Cn1c2nc(-c3cc(C)nn3CC)ncc2c2cc(C(N)=O)cc(OCCCOC)c21 [Example 23]

>  <IC50>
< 50 nM

$$$$
>  <compound>
CCn1nc(C)cc1C(=O)Nc1nc2cc(C(N)=O)cc(OC)c2n1C/C=C/Cn1c(NC(=O)c2cc(C)nn2CC)nc2cc(C(N)=O)cc(OCCCNC(=O)CCNC(=O)OCCSSC[C@H](NC(=O)[C@H](CC(=O)O)NC(=O)[C@H](CC(=O)O)NC(=O)[C@H](CCCNC(=N)N)NC(=O)[C@H](CC(=O)O)NC(=O)CCCN3CCc4c(nc(C(=O)Nc5cccc(-c6cccc(NC(=O)c7nc8c(n7C)CCN(CCCC(=O)O)C8)c6Cl)c5Cl)n4C)C3)C(=O)O)c21 [Example 5]

>  <IC50>
< 50 nM

$$$$

State its IC50 for this compound: CCn1nc(C)cc1C(=O)Nc1nc2cc(C(N)=O)cc(OC)c2n1C/C=C/Cn1c(NC(=O)c2cc(C)nn2CC)nc2cc(C(N)=O)cc(OCCCNC(=O)[C@H](CC(=O)O)NC(=O)[C@H](CC(=O)O)NC(=O)[C@H](CCCNC(=N)N)NC(=O)[C@H](CC(=O)O)NC(=O)CCNC(=O)C3CCN(Cc4cc(C#N)c5oc(-c6cccc(-c7cccc(Nc8nc(C(F)F)nc9cc(CN%10CC[C@@H](O)C%10)cnc89)c7C)c6C)nc5c4)CC3)c21 [Example 8]
200 to 1000 nM

* * *

- experimental_target: PD-1/PD-L1 (Homo sapiens (Human), UniProt Q9NZQ7)
- Sequence (Q9NZQ7 19-238): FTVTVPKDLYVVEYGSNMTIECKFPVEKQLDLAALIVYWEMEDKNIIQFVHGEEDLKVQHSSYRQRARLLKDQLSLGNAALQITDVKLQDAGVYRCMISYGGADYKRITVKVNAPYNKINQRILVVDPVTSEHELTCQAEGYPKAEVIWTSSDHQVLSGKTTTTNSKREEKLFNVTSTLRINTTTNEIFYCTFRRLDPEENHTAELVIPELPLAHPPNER
- protocol: PD-1/PD-L1 binding assay (Alphascreen)
value_kind: IC50

Example entries begin here.
>  <molecule>
Cc1c(Nc2nccc3cc(CN4CC[C@@H](O)C4)cnc23)cccc1-c1cccc(-c2nc3cc(CN4CC[C@@H](C(=O)O)C4)cc(C#N)c3o2)c1C

>  <experimental_result>
0.1 to 1 nM

$$$$
>  <molecule>
Cc1c(Nc2nccc3cc(CN4CC[C@@H](O)C4)cnc23)cccc1-c1cccc(-c2nc3cc(CC4CC[C@@H](C(=O)O)C4)cc(C#N)c3o2)c1C (some centres unmarked)

>  <experimental_result>
0.1 to 1 nM

$$$$
>  <molecule>
Cc1c(NC(=O)c2nc3c(n2C)CCN(C[C@@H](C)O)C3)cccc1-c1cccc(NC(=O)c2nc3c(n2C)CCN(C)C3)c1Cl

>  <experimental_result>
0.1 to 1 nM

$$$$
>  <molecule>
Cc1c(NC(=O)c2nc3c(n2C)CCN(C[C@H](C)O)C3)cccc1-c1cccc(NC(=O)c2nc3c(n2C)CCN(C)C3)c1Cl

>  <experimental_result>
0.1 to 1 nM

$$$$
>  <molecule>
Cc1c(-c2nc3cc(CN4CC[C@@H](C(=O)O)C4)cc(C#N)c3o2)cccc1-c1cccc(NC(=O)c2nc3c(n2C)CCN(C)C3)c1Cl

>  <experimental_result>
0.1 to 1 nM

$$$$
>  <molecule>
Cc1c(-c2nc3cc(CN4CC[C@@H](C(=O)O)C4)cc(C#N)c3o2)cccc1-c1cccc(-n2cc3c(n2)CN(C(C)C)CC3)c1Cl

>  <experimental_result>
0.1 to 1 nM

$$$$
>  <molecule>
Cc1c(NC(=O)c2nc3c(n2C)CCN(C2CCOCC2)C3)cccc1-c1cccc(NC(=O)c2nc3c(n2C)CCN(C)C3)c1Cl

>  <experimental_result>
0.1 to 1 nM

$$$$
>  <molecule>
Cc1c(Nc2nccc3cc(CN4CC[C@@H](O)C4)cnc23)cccc1-c1cccc(-c2nc3cc(CN4CC(C(=O)O)C4)cc(C#N)c3o2)c1C

>  <experimental_result>
0.1 to 1 nM

$$$$

Retrieve IC50 on PD-1/PD-L1 (Homo sapiens (Human), UniProt Q9NZQ7); query Cc1c(Nc2nccc3cc(CN4CC[C@@H](O)C4)cnc23)cccc1-c1cccc(-c2nc3cc(CN4CC(C(=O)O)C4)cc(Cl)c3o2)c1C
0.1 to 1 nM

Retrieve IC50 on PD-1/PD-L1 (Homo sapiens (Human), UniProt Q9NZQ7); query Cc1c(-c2nc3c(C#N)cc(CN4CC[C@@H](O)C4)cn3n2)cccc1-c1cccc(-c2nc3cc(CN4CC[C@@H](C(=O)O)C4)cc(C#N)c3o2)c1C
0.1 to 1 nM

Retrieve IC50 on PD-1/PD-L1 (Homo sapiens (Human), UniProt Q9NZQ7); query Cc1c(Nc2nccc3cc(CN4CC[C@@H](O)C4)cnc23)cccc1-c1cccc(-c2nc3c(Cl)cc(CN4CC[C@@H](C(=O)O)C4)cn3n2)c1C
0.1 to 1 nM

Source of measurements: patent US11596692B1
